molecular target: Mu-type opioid receptor (Homo sapiens, UniProt P35372)
Sequence (P35372 whole entry): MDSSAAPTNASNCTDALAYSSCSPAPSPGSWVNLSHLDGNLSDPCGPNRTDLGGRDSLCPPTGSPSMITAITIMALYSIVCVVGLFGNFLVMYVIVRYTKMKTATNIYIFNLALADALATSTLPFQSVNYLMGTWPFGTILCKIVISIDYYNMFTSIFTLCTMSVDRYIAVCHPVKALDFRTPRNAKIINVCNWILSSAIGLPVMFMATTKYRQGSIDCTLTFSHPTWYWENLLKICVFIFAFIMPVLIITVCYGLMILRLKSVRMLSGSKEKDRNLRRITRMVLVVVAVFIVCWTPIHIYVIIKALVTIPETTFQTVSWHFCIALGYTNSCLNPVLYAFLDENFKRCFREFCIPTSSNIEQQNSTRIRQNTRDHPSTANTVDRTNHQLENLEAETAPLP
Each entry falls into one class according to its Ki; the ranges are lower range (below 0.9 nM), middle range (0.9 nM to below 10 nM), upper range (10 nM or more)

COc1cccc(CNc2ccc3c(c2)[C@@]24CCCC[C@H]2[C@@H](C3)N(CC2CC2)CC4)c1	lower range
COc1ccc(CN(C)c2ccc3c(c2)[C@@]24CCCC[C@H]2[C@@H](C3)N(CC2CCC2)CC4)cc1	middle range
COc1ccc(CNc2ccc3c4c2O[C@H]2[C@@H](O)C=C[C@H]5[C@@H](C3)N(C)CC[C@@]452)cc1	upper range

Incoming: Quick check: band for `COc1cccc(CN(C)c2ccc3c(c2)[C@@]24CCCC[C@H]2[C@@H](C3)N(CC2CCC2)CC4)c1`
Outgoing: upper range

Incoming: Similarly, `CN1CC[C@]23c4c5ccc(NCc6ccc(O)cc6)c4O[C@H]2[C@@H](O)C=C[C@H]3[C@H]1C5` ?
Outgoing: upper range

Incoming: # iterate: `Oc1cccc(CNc2ccc3c(c2)[C@@]24CCCC[C@H]2[C@@H](C3)N(CC2CCC2)CC4)c1`
Outgoing: lower range

Incoming: Input `COc1ccccc1CN(C)c1ccc2c(c1)[C@@]13CCCC[C@H]1[C@@H](C2)N(CC1CCC1)CC3`
Outgoing: upper range

Incoming: Here is the next compound: `Oc1ccccc1CNc1ccc2c(c1)[C@@]13CCCC[C@H]1[C@@H](C2)N(CC1CCC1)CC3`
Outgoing: middle range

Incoming: Also `COc1ccc(CNc2ccc3c(c2)[C@@]24CCCC[C@H]2[C@@H](C3)N(CC2CCC2)CC4)cc1` ?
Outgoing: lower range

Incoming: Moving on to the next compound: `c1cc2c(cc1CNc1ccc3c(c1)[C@@]14CCCC[C@H]1[C@@H](C3)N(CC1CC1)CC4)OCO2`
Outgoing: lower range

Incoming: Same again, this time with `COc1ccccc1CNc1ccc2c(c1)[C@@]13CCCC[C@H]1[C@@H](C2)N(CC1CCC1)CC3`
Outgoing: middle range

Incoming: Now give it for `COc1ccccc1CNc1ccc2c(c1)[C@@]13CCCC[C@H]1[C@@H](C2)N(CC1CC1)CC3` too.
Outgoing: middle range

* * *

organism: Homo sapiens; experiment: Selectivity index, ratio of inhibition of human kappa opioid receptor to inhibition of human mu opioid receptor
Just so you know, the groups by Selectivity ratio go like this: bin 0 (below 60), bin 1 (60 to below 100), bin 2 (100 or more)

Example results:
COc1ccccc1CN(C)c1ccc2c(c1)[C@@]13CCCC[C@H]1[C@@H](C2)N(CC1CCC1)CC3	bin 0
COc1ccccc1CNc1ccc2c(c1)[C@@]13CCCC[C@H]1[C@@H](C2)N(CC1CC1)CC3	bin 2
c1cc2c(cc1CNc1ccc3c(c1)[C@@]14CCCC[C@H]1[C@@H](C3)N(CC1CCC1)CC4)OCO2	bin 2
O=[N+]([O-])c1cccc(CNc2ccc3c(c2)[C@@]24CCCC[C@H]2[C@@H](C3)N(CC2CCC2)CC4)c1	bin 2
c1ccc(CNc2ccc3c(c2)[C@@]24CCCC[C@H]2[C@@H](C3)N(CC2CCC2)CC4)cc1	bin 1

Incoming: Please indicate the class for `COc1ccc(CNc2ccc3c4c2O[C@H]2[C@@H](O)C=C[C@H]5[C@@H](C3)N(C)CC[C@@]452)cc1` based on its Selectivity ratio.
Outgoing: bin 2

Incoming: Then `CN1CC[C@]23CCCC[C@H]2[C@H]1Cc1ccc(N)cc13` ?
Outgoing: bin 2

Incoming: Please do the same for `c1ccc(CNc2ccc3c(c2)[C@@]24CCCC[C@H]2[C@@H](C3)N(CC2CC2)CC4)cc1` as well.
Outgoing: bin 2

Incoming: Now consider `c1cc2c(cc1CNc1ccc3c(c1)[C@@]14CCCC[C@H]1[C@@H](C3)N(CC1CC1)CC4)OCO2` and answer again.
Outgoing: bin 2

Incoming: Again, but for `COc1ccc(CNc2ccc3c(c2)[C@@]24CCCC[C@H]2[C@@H](C3)N(CC2CCC2)CC4)cc1`
Outgoing: bin 2

Incoming: Please answer likewise for `Oc1ccccc1CNc1ccc2c(c1)[C@@]13CCCC[C@H]1[C@@H](C2)N(CC1CCC1)CC3`
Outgoing: bin 1

Incoming: Another compound to check: `COc1cccc(CN(C)c2ccc3c(c2)[C@@]24CCCC[C@H]2[C@@H](C3)N(CC2CCC2)CC4)c1`
Outgoing: bin 0

Incoming: Now the compound `COc1ccc(CNc2ccc3c(c2)[C@@]24CCCC[C@H]2[C@@H](C3)N(CC2CC2)CC4)cc1`
Outgoing: bin 1
